System: Candida albicans MTU-12124
assay readout: MIC (µg/mL)

Some compounds with recorded MIC:
| compound | MIC [µg/mL] |
| --- | --- |
| Clc1cc(Cl)n2c(-c3ccc(Cl)s3)ncc2n1 [Exp. 7] | 1.56 |
| Clc1cc(Cl)n2c(-c3cccs3)ncc2n1 [Exp. 1] | 6.25 |
| Clc1cc(Cl)n2c(-c3ccsc3)ncc2n1 [Exp. 5] | 6.25 |
| Clc1cc(Cl)n2c(Cc3cccs3)ncc2n1 [Exp. 4] | 6.25 |
| Cc1ccc(-c2ncc3nc(Cl)cc(Cl)n23)s1 [Exp. 8] | 3.13 |

(P) Clc1ccc(Cc2nc(Cl)c3nc(Cl)cc(Cl)n23)cc1 [compound 18]
(Q) Clc1cc(Cl)n2c(-c3ccc(Br)s3)ncc2n1 [Exp. 6]
// query Smaller MIC value, P vs Q ? Your answer should be the label attached to the chosen record.
// result Q
(Q: 0.78 µg/mL, P: 6.25 µg/mL)

(a) Clc1cc(Cl)n2c(C3CCCCC3)nc(Cl)c2n1 [compound 19]
(b) Clc1cc(Cl)n2c(-c3ccc(Br)cc3)nc(Cl)c2n1 [Exp. 17]
(c) Clc1cc(Cl)n2c(-c3ccco3)ncc2n1 [Exp. 3]
(d) Clc1cc(Cl)n2c(-c3ccccc3)nc(Cl)c2n1 [Exp. 13]
// query Arrange the 4 compounds from largest to smallest MIC. Give the order by naming the labels one after another as requested.
// result d, c, b, a
(d: 12.5 µg/mL, c: 6.25 µg/mL, b: 3.13 µg/mL, a: 1.56 µg/mL)

----------
This section lists MIC readings for Microsporum canis 200100.
assay readout: MIC (µg/mL)

| query smiles | assay readout | units symbol | observed measurement |
| --- | --- | --- | --- |
| Clc1cc(Cl)n2c(-c3ccco3)ncc2n1 | MIC | µg/mL | 1.56 |

(I) Clc1cc(Cl)n2c(Cc3cccs3)ncc2n1
(II) Clc1cc(Cl)n2c(-c3ccccc3)nc(Cl)c2n1
// query Smaller MIC value, I vs II ? Your answer should be the label attached to the chosen record.
// result II
(II: 0.78 µg/mL, I: 1.56 µg/mL)

----------
This section lists MIC readings for Microsporum canis 200100.
assay readout: MIC (µg/mL)

| query smiles | MIC [µg/mL] |
| --- | --- |
| Clc1cc(Cl)n2c(-c3cccs3)ncc2n1 | 1.56 |

(P) Clc1cc(Cl)n2c(-c3ccc(Br)s3)ncc2n1
(Q) Clc1cc(Cl)n2c(-c3ccsc3)ncc2n1
// query Parameter check: reported MIC is higher for which label, P or Q ? Your answer should be the label attached to the chosen record.
// result Q

Values compiled from patent US4914104A.
